Source: PubChem BioAssay (Tox21)

assay: qHTS assay to identify aromatase inhibitors - cell viability counter screen (AID 743084); settings: MCF-7 aro ERE viability, CellTiter-Fluor, 24 h; series mostly up to 70.3 µM;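 also: cells stimulated with testosterone during compound exposure; nearly all actives have a fitted effect of over 55% in size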
Results filed as inconclusive are left out. Activity calls are given as the source filed them. Calls follow the shape of the dose curve; as a rule, active = well fitted cell-killing curve with a large enough effect in the repeat runs; inconclusive = weak or mixed curves, or effect the other way; inactive = no such curve, though single readings can be large or run the other way.
Tick one outcome: TRUE = active, FALSE = inactive

                                   molecule    cat
0         COc1cc(C(=O)N2CCCCCCC2)cc(OC)c1OC  FALSE
1             CC(C)(c1ccc(O)cc1)c1ccc(O)cc1  FALSE
2           COC(=O)[C@@H](N)Cc1ccc(O)c(O)c1   TRUE
3                       c1ccc(CC2=NCCN2)cc1  FALSE
4  CCN1CCC[C@H]1CNC(=O)c1c(O)c(Cl)cc(Cl)c1OC  FALSE
5  CO[C@]12C[C@@H](COC(=O)c3cncc(Br)c3)CN(C)[C@@H]1Cc1cn(C)c3cccc2c13  FALSE
6                             NCCc1cnc[nH]1  FALSE
7                              C/C=C(\C)C#N  FALSE
8      C=COCC1CCC(CO)CC1 (stereo not drawn)  FALSE
9                    CC(=O)CC(C)(C)C1CCCCC1  FALSE

Query block: Assay outcome for `NS(=O)(=O)c1cc(C(=O)O)cc(N2CCCC2)c1Oc1ccccc1` : what was it?
Result block: FALSE

Query block: Assay outcome for Cn1cc(S(C)=O)c(=O)c2ccc(F)cc21 (stereo not drawn) : what was it?
Result block: FALSE

* * *

assay: qHTS assay to identify small molecule antagonists of the thyroid receptor (TR) signaling pathway - cell viability counter screen (AID 743064); settings: GH3.TRE-Luc viability, CellTiter-Fluor, 24 h; series mostly up to 70.3 µM; also: % is scaled to controls: 0 for no effect and ±100 for the full control effect; nearly all actives have a fitted effect of over 50% in size
Inconclusive results are not listed. Calls of active or inactive are those of the source. Calls follow the shape of the dose curve; as a rule, active = well fitted cell-killing curve with a large enough effect in the repeat runs; inconclusive = weak or mixed curves, or effect the other way; inactive = no such curve, though single readings can be large or run the other way.
Tick one outcome: Yes for active, No for inactive

Query block: Assay outcome for CC(C)NCC(O)c1ccc(NS(C)(=O)=O)cc1 (stereo not drawn) : what was it?
Result block: No

Query block: Assay outcome for `OCCCC1CCCCC1` : what was it?
Result block: No

Query block: Assay outcome for NC(CSCC(=O)O)C(=O)O (stereo not drawn) : what was it?
Result block: No

* * *

target: Peroxisome proliferator-activated receptor gamma (Homo sapiens); assay: qHTS assay to identify small molecule antagonists of the peroxisome proliferator-activated receptor gamma (PPARg) signaling pathway (AID 743191); settings: HEK293H PPARg-UAS-bla, beta-lactamase ratio, antagonist, 17 h; series mostly up to 62.6 µM; also: % is scaled to controls: 0 for no effect and ±100 for the full control effect; nearly all actives have a fitted effect of over 30% in size
Results filed as inconclusive are left out. Active and inactive are the calls of the source. Calls follow the shape of the full dose curve.
measured-metric: ratio activity, negative = inhibition

                                   compound                        measured_metric  value_reported
0  CCn1ccnc1CC1COc2ccccc2O1 (configuration not stated)  ratio activity, negative = inhibition        inactive
1              CCCN(CCC)CCc1cccc2c1CC(=O)N2  ratio activity, negative = inhibition        inactive
2                            N=C(N)c1ccccc1  ratio activity, negative = inhibition        inactive
3                  N=c1nc(N2CCCCC2)cc(N)n1O  ratio activity, negative = inhibition        inactive

Query block: I have this compound here, `CC(C)NC(=O)NC(C)C` , and I need its recorded ratio activity, negative = inhibition.
Result block: inactive

Query block: I have this compound here, `N[C@@H](C(=O)N[C@@H]1C(=O)N2C(C(=O)O)=C(Cl)CS[C@H]12)c1ccccc1` , and I need its recorded ratio activity, negative = inhibition.
Result block: 6.67% [at 13.2 µM] (inactive)

Query block: I have this compound here, `CCCCCCCCCCCC` , and I need its recorded ratio activity, negative = inhibition.
Result block: inactive
